# Assay notes: Displacement of [125I]Bolton-Hunter-CCK-8 from guinea pig cortex Cholecystokinin type B receptor
Endpoint: pIC50
When answering, recall that pIC50 equals minus log10 of the concentration in mol/L, and write that number alone.

Can you share its pIC50? I mean this compound: CC(C)(C)OC(=O)N[C@@H](Cc1c[nH]c2ccccc12)C(=O)N[C@@H](CCCCNC(=O)C=Cc1ccc(O)cc1)CNN[C@@H](CC(=O)O)C(=O)N[C@@H](Cc1ccccc1)C(N)=O 5.42

Can you share its pIC50? I mean this compound: CC(C)(C)OC(=O)N[C@@H](Cc1c[nH]c2ccccc12)C(=O)N[C@@H](CCCCNC(=O)C=Cc1ccc(O)cc1)C(=O)N[C@H](CNN[C@@H](Cc1ccccc1)C(N)=O)CC(=O)O 5.15

Can you share its pIC50? I mean this compound: CN(C(=O)[C@H](CC(=O)O)NNC[C@H](CCCCNC(=O)C=Cc1ccc(O)cc1)NC(=O)[C@H](Cc1c[nH]c2ccccc12)NC(=O)OC(C)(C)C)[C@@H](Cc1ccccc1)C(N)=O 5.30

Can you share its pIC50? I mean this compound: Cc1ccccc1NC(=O)NCCCC[C@H](NNC[C@H](Cc1c[nH]c2ccccc12)NC(=O)OC(C)(C)C)C(=O)N[C@@H](CC(=O)O)C(=O)N[C@@H](Cc1ccccc1)C(N)=O 5.60
